Values from patent US20030113665A1

# protocol: UV absorption spectra in solution
# Type: physicochemical
# test.parameters: on the shortwave slope (Tables 1-3)
measured.property: λ1/2-λ1/10

compound | λ1/2-λ1/10
C=C1N(C)c2ccc(C)cc2C1(C)C [Example 63] | 36^3) nm
CN1/C(=C\C=C(\C#N)c2nc3ccccc3s2)C(C)(C)c2ccccc21 [Example 76] | 34^3) nm
Cc1cnc(N(C)C)s1 [Example 28] | 32^3) nm

Request: State the recorded λ1/2-λ1/10 for this entry: C=C1N(C)c2ccccc2C1(C)C [Example 56]
Result: 36^3) nm
